test: Nonclinical safety studies incl. 28-day GLP study in monkeys; type: in vivo; conditions: monkey; primates, plasma; read-out: Cmax where QTc increases are noted
ENDPOINT LABEL: Cmax (ng/mL)
Respond with the bare value in ng/mL.

input: Item under review: CC(C)c1cnn2c(N[C@@H]3CCc4[nH]c5ccccc5c4C3)nc(-c3cncc(F)c3)nc12 . Reported Cmax?
output: 11200

###

target: AHR (Homo sapiens, UniProt P35869); test: IL-22 secretion by CD3/CD28 activated human T cells (Meso Scale Discovery); type: cell-based; design: endogenous in cells; conditions: 48 hours
Sequence (P35869 11-848): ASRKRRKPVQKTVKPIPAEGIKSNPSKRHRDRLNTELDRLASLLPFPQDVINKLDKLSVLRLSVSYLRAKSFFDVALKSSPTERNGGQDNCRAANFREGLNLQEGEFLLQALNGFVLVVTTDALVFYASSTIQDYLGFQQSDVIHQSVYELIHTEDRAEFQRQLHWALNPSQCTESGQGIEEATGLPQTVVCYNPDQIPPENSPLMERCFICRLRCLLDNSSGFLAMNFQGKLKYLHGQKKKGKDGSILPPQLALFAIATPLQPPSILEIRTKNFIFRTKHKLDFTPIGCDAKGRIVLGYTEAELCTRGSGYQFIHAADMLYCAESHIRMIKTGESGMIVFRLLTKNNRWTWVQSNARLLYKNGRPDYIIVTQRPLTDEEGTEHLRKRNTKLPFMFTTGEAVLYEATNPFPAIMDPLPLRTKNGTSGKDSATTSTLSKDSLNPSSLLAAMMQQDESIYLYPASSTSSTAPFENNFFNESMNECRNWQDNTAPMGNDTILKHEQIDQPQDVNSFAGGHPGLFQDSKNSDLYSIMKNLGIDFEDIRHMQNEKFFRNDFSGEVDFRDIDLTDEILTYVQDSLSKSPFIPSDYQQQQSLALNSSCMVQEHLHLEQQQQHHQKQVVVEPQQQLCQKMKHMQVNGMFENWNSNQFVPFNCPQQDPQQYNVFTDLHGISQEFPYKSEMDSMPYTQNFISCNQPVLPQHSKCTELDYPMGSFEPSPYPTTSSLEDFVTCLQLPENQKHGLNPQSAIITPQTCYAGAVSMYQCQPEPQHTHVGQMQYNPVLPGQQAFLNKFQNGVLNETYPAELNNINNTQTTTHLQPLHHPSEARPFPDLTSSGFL
ENDPOINT LABEL: pIC50
The read-out pIC50 is expressed as -log10 of concentration in moles per litre.

input: Item under review: CC(C)c1cnn2c(N[C@@H]3CCc4[nH]c5ccccc5c4C3)nc(-c3cncc(F)c3)nc12 . Reported pIC50?
output: 8.15
